Origin of measurements: patent US20180311217A1

Test: Study TMX-99-001: febuxostat plasma pharmacokinetics
Assay type: in vivo, human
Details: human, plasma, oral, 50 mg, IR 50 mg single dose; mean; read-out: AUC4-24
Test readout: AUC
Write the quantity with the unit trailing the number.

Note to self: AUC recorded for Cc1nc(-c2ccc(OCC(C)C)c(C#N)c2)sc1C(=O)O [Febuxostat] was 1260 ng·h/mL

----------
Assay: Study TMX-99-001: febuxostat plasma pharmacokinetics
Type: in vivo, human
Conditions: human, plasma, oral, 50 mg, IR 50 mg single dose; mean
Test readout: MRT inf (h)
Please state the figure in h; there is no need to write the unit.

Record Cc1nc(-c2ccc(OCC(C)C)c(C#N)c2)sc1C(=O)O [Febuxostat] , field MRT inf: 5

----------
Assay: Study TMX-99-001: febuxostat plasma pharmacokinetics
Format: in vivo, human
Settings: human, plasma, oral, 30 mg, IR 30 mg BID; mean; following AM and PM dose; read-out: AUC24
Test readout: AUC

Cc1nc(-c2ccc(OCC(C)C)c(C#N)c2)sc1C(=O)O yielded AUC of 6220 ng·h/mL

----------
Experiment: Study TMX-99-001: febuxostat plasma pharmacokinetics
Format: in vivo, human
Details: human, plasma, oral, 90 mg, IR 90 mg single dose; mean; read-out: AUC24
Test readout: AUC (ng·h/mL)
Supply the numeric figure in ng·h/mL, leaving out any unit text.

Summary for this compound, Cc1nc(-c2ccc(OCC(C)C)c(C#N)c2)sc1C(=O)O [Febuxostat] : AUC is 9390

----------
Assay: Study TMX-99-001: febuxostat plasma pharmacokinetics
Type: in vivo, human
Conditions: human, plasma, oral, 120 mg, IR 120 mg single dose; mean; read-out: AUC0-4
Test readout: partial AUC from 0 to 4 hours (ng·h/mL)
Response body: numeric value in ng·h/mL, unit text excluded.

For Cc1nc(-c2ccc(OCC(C)C)c(C#N)c2)sc1C(=O)O [Febuxostat] the compound record lists partial AUC from 0 to 4 hours as 8590

----------
Test: Study TMX-99-001: febuxostat plasma pharmacokinetics
Format: in vivo, human
Conditions: human, plasma, oral, 30 mg, IR 30 mg BID; mean
Test readout: MRT inf (h)
// note: answer is a bare numeric in h

Form field MRT inf, entry Cc1nc(-c2ccc(OCC(C)C)c(C#N)c2)sc1C(=O)O : 18.6

----------
Test: Study TMX-99-001: febuxostat plasma pharmacokinetics
Format: in vivo, human
Conditions: human, plasma, oral, 240 mg, IR 240 mg single dose; mean; read-out: AUC4-24
Test readout: AUC
Answer as a quantity: numeral, then unit.

The recorded AUC for Cc1nc(-c2ccc(OCC(C)C)c(C#N)c2)sc1C(=O)O [Febuxostat] is 9900 ng·h/mL

----------
Test: Study TMX-99-001: febuxostat plasma pharmacokinetics
Format: in vivo, human
Conditions: human, plasma, oral, 70 mg, IR 70 mg single dose; mean; read-out: AUC0-4
Test readout: partial AUC from 0 to 4 hours

Form: compound = Cc1nc(-c2ccc(OCC(C)C)c(C#N)c2)sc1C(=O)O ; partial AUC from 0 to 4 hours = 5280 ng·h/mL

----------
Test: Study TMX-99-001: febuxostat plasma pharmacokinetics
Type: in vivo, human
Settings: human, plasma, oral, 30 mg, IR 30 mg single dose; mean; read-out: AUC0-4
Test readout: partial AUC from 0 to 4 hours (ng·h/mL)
Enter your answer as a number in ng·h/mL; do not include the unit.

Short answer for Cc1nc(-c2ccc(OCC(C)C)c(C#N)c2)sc1C(=O)O : partial AUC from 0 to 4 hours was 1900
